# Test system: XIP peptide (Xip251-270) binding
# PROTOCOL_SUMMARY: small-molecule binders of XIP peptide, primary screen, biochemical, small-molecule microarray, fluorescence 635/667 nm, 0.1 µg/mL protein (AID 1182)
# CONDITION_PARAMETERS: fluorescent protein binding, 635 nm, higher = more signal, called active from +8 up or from −8 down
REPORTED_PROPERTY: composite z-score

COC(=O)CC=C[C@@H](C)[C@@H](C=NO[C@@H]1O[C@H](COC(C)=O)[C@@H](OC(C)=O)[C@H](OC(C)=O)[C@H]1OC(C)=O)OC | -0.865
CC(CCN1CCCCc2nc(C)c(C)cc21)=NO[C@H](C)c1cn([C@H](CO)Cc2ccccc2)nn1 | -0.28
CC(C)CON=C1C[C@@H](O)[C@@H](O)[C@@H]2[C@@H]3C(=O)N(C[C@@H]4CCCO4)C(=O)[C@@H]3CC[C@@H]12 | -0.0867
C[C@H]1COC(=O)[C@@H]2CCCN2C(=O)[C@@H](C)COC(=O)[C@H](Cc2ccccc2)NC1=O | -0.102
CCC(=O)[C@@]1(O)C(=O)N2C(=C3C(=O)OCC[C@@H]31)N(Cc1ccccc1)C(C)=C(C(=O)OC)[C@H]2c1ccccc1 | -0.0955
CCOC(=O)[C@H](Cc1ccccc1)NC(=O)CCC1CC(OC(=O)NCCc2ccc(F)cc2)CC2(CCCC(COC(=O)NCCc3ccc(Cl)cc3)O2)O1 (stereo partly specified) | -0.345
COC(=O)CC=C[C@@H](C)[C@@H](C=NO[C@@H](C)c1cc(-c2c(C)cc(C)cc2C)no1)NS(=O)(=O)c1ccc(C)cc1 | -0.105
C[C@H](ON=C1[C@H]2CCn3c(=O)n(-c4ccccc4)c(=O)n3[C@H]2[C@H](O)[C@@H]2O[C@H]12)c1cn([C@H](CO)Cc2ccccc2)nn1 | 2.76
CCC=CCCC(OC(=O)c1ccc(Br)cc1)C1=CCCCC1=O (stereo unspecified) | 0.84
Cc1ccc(S(=O)(=O)N[C@H]2COC(=O)CC=C[C@H](C)[C@@H](NS(=O)(=O)c3ccc(C)cc3)COC(=O)CC=C[C@@H]2C)cc1 | 0.127
CCN1C(=O)[C@H]2[C@H]3[C@H](O)[C@H](O)CC(=NNC(=O)OCc4ccc(OC)cc4)[C@@H]3CC[C@H]2C1=O | 0.0729
CO[C@@H]1COC(=O)CC=C[C@@H](C)[C@@H]2C=C[C@H](O)[C@@H](COC(=O)CC=C[C@H]1C)O2 | 0.0592
O=C1[C@H]2[C@H]3[C@H](O)[C@H](O)CC(=NOCc4ccccc4)[C@@H]3CC[C@H]2C(=O)N1C[C@@H]1CCCO1 | -0.308
O=C1CCCC=C1C(O)CCOC(c1ccccc1)(c1ccccc1)c1ccccc1 (stereo unspecified) | -0.0848
COC(=O)[C@@H]1CC[C@@H](C)[C@H](c2ccc(Br)cc2)N1 | -0.0456
COc1cccc([C@H]2Oc3ccc(OC)cc3C(=NOC[C@@H](C)[C@H](OCc3ccccc3)C(C)C)[C@@H]2O)c1 | 0.305
COC(=O)CC=C[C@@H](C)[C@@H](C=NOC[C@@H](O)[C@H]1O[C@@H]2OC(C)(C)O[C@@H]2[C@H]1O)NS(=O)(=O)c1ccc(C)cc1 | 0.0133
C#CCCCON=C1C[C@@H](O)[C@@H](O)[C@@H]2[C@@H]3C(=O)N(c4cccc(Oc5ccccc5)c4)C(=O)[C@@H]3CC[C@H]12 | 0.332
COC(=O)CC=C[C@@H](C)[C@@H](C=NOCC[C@@H]1C=C[C@H](OC(C)=O)[C@@H](COC(C)=O)O1)OC | -0.198
CC(C)=CCCC(C)=CCON=C1C[C@@H](O)[C@@H](O)[C@@H]2[C@@H]3C(=O)N(c4ccc(F)cc4F)C(=O)[C@@H]3CC[C@@H]12 | -0.0619
CO[C@@H]1COC(=O)CC=C[C@@H](C)[C@H](OC)COC(=O)[C@@H](C)COC(=O)CC=C[C@H]1C | -0.0671
COc1ccc(O[C@@H]2[C@H](O)CO[C@H]2C=Cc2ccccc2)cc1 | 0.266
C[n+]1ccc(-c2ccc(CO)cc2)cc1 | 0.725
CC(=O)OC[C@H]1O[C@@H](ON=C(C)CCN2CCCc3nc(C)c(C)cc32)[C@H](OC(C)=O)[C@@H](OC(C)=O)[C@@H]1OC(C)=O | -0.444
CCN1C(=O)[C@H]2[C@H]3[C@H](O)[C@H](O)CC(=NOCC(C)C)[C@@H]3CC[C@H]2C1=O | 0.821
CO[C@H]1COC(=O)[C@@H](C)COC(=O)[C@H](C)NC(=O)CC=C[C@H]1C | -0.166
CO[C@H]1COC(=O)[C@@H](C)COC(=O)[C@@H](OCc2ccccc2)C=C[C@@H]1C | 0.224
CC(C)(C)N1C(=O)[C@H]2[C@H]3[C@H](O)[C@H](O)CC(=O)[C@H]3CC[C@H]2C1=O | 0.596
COC(=O)[C@H](C)NC(=O)CCC1CC(OC(=O)NCc2ccc3c(c2)OCO3)CC2(CCCC(COC(=O)NCC3CCCCC3)O2)O1 (stereo partly specified) | 0.655
O=C1CCCC=C1C(CCc1ccccc1)OC(=O)c1ccc(Br)cc1 (stereo unspecified) | 0.622
C=CC[C@@H]1C=C[C@H](ON=C(C)CCC(=O)OC[C@H]2O[C@H](C#Cc3ccccc3)C=C[C@@H]2Oc2ccc(C)cc2)[C@@H](CO)O1 | 1.18

These data points were gathered from PubChem BioAssay.
